Test: Pharmacokinetic properties (oral availability, elimination half-life, Cmax)
Type: in vivo
Settings: blood; read-out: t½ elim. (converted)
Text: As used herein, bioavailability or oral availability refers to the rate and extent of absorption. Methods for determining bioavailability or oral availability are well known to those of skill in the art. For example, bioavailability or oral availability of any of the compounds described herein can be determined empirically by administration of the compound to an animal, followed by taking blood samples over time and measuring the blood concentration of the compound. […]
assay metric: half-life (h)

[P] Cc1cc(C)c(NC(=O)c2sccc2S(=O)(=O)Nc2onc(C)c2Cl)c(Cl)c1 [Compound 34]
[Q] Cc1cc(C)c(NC(=O)c2sccc2S(=O)(=O)Nc2onc(C)c2Cl)c(-c2ncco2)c1 [Compound 44]
Exercise: Consider entries P and Q . Which has the numerically lower half-life? Indicate which entry you chose by stating its label.
Key: P
